assay: Solubility in fasted-state simulated colonic fluid (FaSSCoF) at pH 6.5; type: physicochemical; conditions: 25 °C, pH 6.5, fassgf or other biorelevant, thermodynamic from solid, pH 6.5 FaSSCoF Solubility (mg/mL) Run 2
Counter-ions that a name gives are not always drawn.
The label depends only on solubility thermodynamic at 24 h: TRUE if it is at least 8 µg/mL, FALSE if it is smaller.

Compound | Assigned Label
COc1cc(Nc2cc(Oc3ccc(NC(=O)Nc4cc(C(C)(C)C)cc(NS(C)(=O)=O)c4OC)c4ccccc34)ccn2)ccc1C(=O)NCC(CO)(CO)CO | TRUE
COc1cc(Nc2cc(Oc3ccc(NC(=O)Nc4cc(C(C)(C)C)cc(NS(C)(=O)=O)c4OC)c4ccccc34)ccn2)ccc1CP(C)(=O)O [70 (sodium salt)] | TRUE
COc1cc(Nc2cc(Oc3ccc(NC(=O)Nc4cc(C(C)(C)C)cc(NS(C)(=O)=O)c4OC)c4ccccc34)ccn2)ccc1C(=O)NCCOCCO | FALSE
COc1cc(Nc2cc(Oc3ccc(NC(=O)Nc4cc(C(C)(C)C)cc(NS(C)(=O)=O)c4OC)c4ccccc34)ccn2)ccc1C(=O)N(C)CCCN1CCOCC1 | TRUE
COc1cc(Nc2cc(Oc3ccc(NC(=O)Nc4cc(C(C)(C)C)cc(NS(C)(=O)=O)c4OC)c4ccccc34)ccn2)ccc1-c1nn[nH]n1 | TRUE
COc1cc(Nc2cc(Oc3ccc(NC(=O)Nc4cc(C(C)(C)C)cc(NS(C)(=O)=O)c4OC)c4ccccc34)ccn2)ccc1C(=O)NC(C)CN1CCN(C)CC1 (stereo not shown) | TRUE
COc1cc(Nc2cc(Oc3ccc(NC(=O)Nc4cc(C(C)(C)C)cc(NS(C)(=O)=O)c4OC)c4ccccc34)ccn2)cc(OC)c1C(=O)NCCN1CCN(CCO)CC1 | TRUE
COc1cc(Nc2cc(Oc3ccc(NC(=O)Nc4cc(C(C)(C)C)cc(NS(C)(=O)=O)c4OC)c4ccccc34)ccn2)ccc1C(=O)NC(CO)(CO)CO | TRUE
COc1cc(Nc2cc(Oc3ccc(NC(=O)Nc4cc(C(C)(C)C)cc(NS(C)(=O)=O)c4OC)c4ccccc34)ccn2)ccc1C(=O)NCCN1CCN(C(=O)CN(C)C)CC1 | FALSE
COc1cc(Nc2cc(Oc3ccc(NC(=O)Nc4cc(C(C)(C)C)cc(NS(C)(=O)=O)c4OC)c4ccccc34)ccn2)cc(OC)c1C(=O)NCC(CO)(CO)CO | TRUE
COc1cc(Nc2cc(Oc3ccc(NC(=O)Nc4cc(C(C)(C)C)cc(NS(C)(=O)=O)c4OC)c4ccccc34)ccn2)cc(OC)c1C(=O)NCCN(C)C | TRUE
COc1c(NC(=O)Nc2ccc(Oc3ccnc(Nc4ccc(C(=O)NCCCN5CCOCC5)c(O)c4)c3)c3ccccc23)cc(C(C)(C)C)cc1NS(C)(=O)=O | TRUE
COc1cc(Nc2cc(Oc3ccc(NC(=O)Nc4cc(C(C)(C)C)cc(NS(C)(=O)=O)c4OC)c4ccccc34)ccn2)ccc1C(=O)NCC[N+]1([O-])CCOCC1 | FALSE
COc1cc(Nc2cc(Oc3ccc(NC(=O)Nc4cc(C(C)(C)C)cc(NS(C)(=O)=O)c4OC)c4ccccc34)ccn2)ccc1S(=O)(=O)N(C)CCN1CCN(C)CC1 | FALSE
COc1cc(Nc2cc(Oc3ccc(NC(=O)Nc4cc(C(C)(C)C)cc(NS(C)(=O)=O)c4OC)c4ccccc34)ccn2)ccc1C(=O)NCCN1CCN(C2CC2)CC1 | TRUE
COc1cc(Nc2cc(Oc3ccc(NC(=O)Nc4cc(C(C)(C)C)cc(NC(=O)CO)c4OC)c4ccccc34)ccn2)ccc1C(=O)NCCN1CC[S+]([O-])CC1 | FALSE
COc1cc(Nc2cc(Oc3ccc(NC(=O)Nc4cc(C(C)(C)C)cc(NS(C)(=O)=O)c4OC)c4ccccc34)ccn2)cc(OC)c1C(=O)NCC1CCN(C)CC1 | FALSE
C#Cc1cc(Nc2cc(Oc3ccc(NC(=O)Nc4cc(C(C)(C)C)cc(NS(C)(=O)=O)c4OC)c4ccccc34)ccn2)ccc1C(=O)NCCN1CCOCC1 | TRUE
COc1cc(Nc2cc(Oc3ccc(NC(=O)Nc4cc(C(C)(C)C)cc(NS(C)(=O)=O)c4OC)c4ccccc34)ccn2)cc(OC)c1C(=O)NCCN1CCOCC1 | TRUE
COc1cc(Nc2nccc(Oc3ccc(NC(=O)Nc4cc(C(C)(C)C)cc(NS(C)(=O)=O)c4OC)c4ccccc34)n2)cc(OC)c1C(=O)NCCN1CCN(C)CC1 | FALSE
